- assay-method-text: Cytotoxicity against African green monkey Vero cells assessed as cell survival at 10 times MIC after 72 hrs by MTT assay
- Assay type: cell-based
- condition-notes: chlorocebus sabaeus, read-out: Survival
Examples of molecules with documented viability at 72 h, 10 times MIC follow.
metric: viability at 72 h, 10 times MIC

compound_string=O=c1oc2ccc3ccccc3c2cc1-c1cc(-c2ccccc2[N+](=O)[O-])nc(Cc2ccc(F)cc2)n1 test_value=17%
compound_string=O=c1oc2ccc3ccccc3c2cc1-c1cc(-c2cccc(Cl)c2)nc(Cc2ccc(F)cc2)n1 test_value=75%
compound_string=O=c1oc2ccc3ccccc3c2cc1-c1cc(-c2ccc(Br)cc2)nc(Cc2ccc(F)cc2)n1 test_value=72%
compound_string=O=c1oc2ccc3ccccc3c2cc1-c1cc(-c2ccc(Cl)cc2)nc(Cc2ccc(F)cc2)n1 test_value=79%
compound_string=COc1cccc(-c2cc(-c3cc4c(ccc5ccccc54)oc3=O)nc(Cc3ccc(F)cc3)n2)c1 test_value=93%
compound_string=COc1ccc(-c2cc(-c3cc4c(ccc5ccccc54)oc3=O)nc(Cc3ccc(F)cc3)n2)cc1 test_value=97%
compound_string=O=c1oc2ccc3ccccc3c2cc1-c1cc(-c2cccc(Br)c2)nc(Cc2ccc(F)cc2)n1 test_value=64%
compound_string=COc1ccccc1-c1cc(-c2cc3c(ccc4ccccc43)oc2=O)nc(Cc2ccc(F)cc2)n1 test_value=91%
compound_string=NNC(=O)c1ccncc1 test_value=100%
compound_string=O=c1oc2ccc3ccccc3c2cc1-c1cc(-c2cccc([N+](=O)[O-])c2)nc(Cc2ccc(F)cc2)n1 test_value=26%
compound_string=O=c1oc2ccc3ccccc3c2cc1-c1cc(-c2ccc([N+](=O)[O-])cc2)nc(Cc2ccc(F)cc2)n1 test_value=39%
